Entry source: ChEMBL document CHEMBL1811853

Task for the reader: assign each of the following compounds its reported inhibition.
biological target: RAC-alpha serine/threonine-protein kinase (Homo sapiens) (UniProt P31749); test: Inhibition of AKT1 at 30 uM by microfluidic mobility shift assay
Sequence (P31749 whole entry): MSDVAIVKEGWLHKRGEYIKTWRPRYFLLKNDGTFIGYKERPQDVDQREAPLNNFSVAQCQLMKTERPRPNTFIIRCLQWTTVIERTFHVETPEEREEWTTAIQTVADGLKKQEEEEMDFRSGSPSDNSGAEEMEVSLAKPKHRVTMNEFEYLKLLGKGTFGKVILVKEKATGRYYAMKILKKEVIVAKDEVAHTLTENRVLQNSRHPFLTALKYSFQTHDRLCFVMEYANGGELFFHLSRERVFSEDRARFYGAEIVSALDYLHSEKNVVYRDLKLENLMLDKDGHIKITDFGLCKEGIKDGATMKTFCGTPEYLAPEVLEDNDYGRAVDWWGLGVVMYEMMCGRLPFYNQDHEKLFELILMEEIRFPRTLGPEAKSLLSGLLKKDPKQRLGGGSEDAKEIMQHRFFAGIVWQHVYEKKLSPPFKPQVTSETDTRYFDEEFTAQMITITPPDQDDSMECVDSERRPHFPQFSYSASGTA
I only need the number, in %, no unit after it.

Report inhibition for Nc1c2c(=O)[nH]c(-c3ccccc3)cc2nn1-c1ccccc1 please.
-2

Report inhibition for Cc1cc2c(c(NS(C)(=O)=O)nn2C)c(=O)[nH]1 please.
1

Report inhibition for COc1ccc(-c2cc3[nH]nc(N)c3c(=O)[nH]2)cc1 please.
21

Report inhibition for COc1cccc(-c2cc3[nH]nc(N)c3c(=O)[nH]2)c1 please.
4

Report inhibition for Cn1nc(N)c2cnc(-c3ccccc3)cc21 please.
4

Report inhibition for Cn1nc2c3c(nc(-c4ccccc4)cc31)NCC(=O)N2 please.
10

Report inhibition for Nc1n[nH]c2cc(-c3ccccn3)[nH]c(=O)c12 please.
2

Report inhibition for Cc1cc2nn(-c3ccccc3)c(N)c2c(=O)[nH]1 please.
5

Report inhibition for Cc1cc2c(c(N)nn2C)c(N2CCCCC2)n1 please.
6

Report inhibition for Cc1cc2c(c(N)nn2C)c(N2CC[C@H](O)C2)n1 please.
7

Report inhibition for Cc1cc2nc(-c3ccccc3)nc(N)c2c(=O)[nH]1 please.
7

Report inhibition for Nc1c2c(=O)[nH]c(-c3ccccn3)cc2nn1-c1ccccc1 please.
4

Report inhibition for CC(C)(C)c1cc2[nH]nc(N)c2c(=O)[nH]1 please.
3

Report inhibition for Cn1nc(N)c2c(=O)[nH]c(-c3ccccn3)cc21 please.
7

Report inhibition for CN1CCN(c2ccc(-c3cc4c(c(N)nn4C)c(=O)[nH]3)cc2)CC1 please.
8

Report inhibition for COC(=O)CCc1c(C)[nH]c(=O)c2c(N)nn(C)c12 please.
5

Report inhibition for Cc1cc2[nH]nc(N)c2c(N2CCCCC2)n1 please.
36

Report inhibition for CN1CCN(c2ccc(-c3cc4[nH]nc(N)c4c(=O)[nH]3)cc2)CC1 please.
9

Report inhibition for COCCNc1nc(C)cc2c1c(N)nn2C please.
6

Report inhibition for CC(C)(C)c1cc2nn(-c3ccccc3)c(N)c2c(=O)[nH]1 please.
7

Report inhibition for COc1ccccc1-c1cc2nn(-c3ccccc3)c(N)c2c(=O)[nH]1 please.
15

Report inhibition for CN1CCN(c2ccc(-c3cc4nn(-c5ccccc5)c(N)c4c(=O)[nH]3)cc2)CC1 please.
3

Report inhibition for COCCNc1nc(-c2ccccc2)cc2c1c(N)nn2C please.
8

Report inhibition for Cc1cc2[nH]nc(N)c2c(N2CCOCC2)n1 please.
17

Report inhibition for Cc1cc2[nH]ncc2c(=O)[nH]1 please.
2

Report inhibition for COc1ccc(S(=O)(=O)Nc2nn(C)c3cc(C)[nH]c(=O)c23)c(OC)c1 please.
10

Report inhibition for Cc1cc2c(c(NC(=O)Nc3ccccc3)nn2C)c(=O)[nH]1 please.
4

Report inhibition for Cn1nc(N)c2c(=O)[nH]c(-c3ccccc3)cc21 please.
8

Report inhibition for Cc1cc2c(c(N)nn2C)c(N2CCOCC2)n1 please.
-8

Report inhibition for COc1ccc(-c2cc3nn(-c4ccccc4)c(N)c3c(=O)[nH]2)cc1 please.
16

Report inhibition for Cc1cc2[nH]nc(N)c2c(=O)[nH]1 please.
-3

Report inhibition for Cc1[nH]c(=O)c2c(N)n(-c3ccccc3)nc2c1-c1ccccc1 please.
-8

Report inhibition for Cc1cc2c(cn1)c(N)nn2C please.
0

Report inhibition for Nc1c2c(=O)[nH]c(-c3ccccc3)cc2nn1-c1ccccn1 please.
10

Report inhibition for Nc1n[nH]c2cc(CC3CCNCC3)[nH]c(=O)c12 please.
13

Report inhibition for CC(=O)Nc1nn(C)c2cc(-c3ccccc3)[nH]c(=O)c12 please.
-9

Report inhibition for COCCNc1nc(C)cc2nn(-c3ccccc3)c(N)c12 please.
3

Report inhibition for Cc1cc2[nH]nc(N)c2cn1 please.
-1

Report inhibition for COc1cccc(-c2cc3c(c(N)nn3C)c(=O)[nH]2)c1 please.
-5

Report inhibition for Nc1n[nH]c2cc(-c3cccs3)[nH]c(=O)c12 please.
4
